Origin of values: patent US20020147146A1

- system.under.test: purified recombinant rabbit GSK-3 (glycogen synthase kinase-3) (rabbit)
- assay.overview: in vitro kinase assay of purified GSK-3 with PGS-1 substrate and 32P-ATP, Lineweaver-Burk analysis (competitive inhibition)
Non-standard residues stand in square brackets, D forms with d. No end group written: not given here. pS = N[C@@H](COP(=O)(O)O)C(=O)O
readout.label: Ki (µM)
Reply with just the number (in µM).

Look up Ki: KEAPPAPPQ[pS]P [peptide #8 …(p)P] 76
